Tested on: SNB-19 CNS
assay_details: NCI tumour cell line growth inhibition, 48 h
assay_metric: log10 of TGI (log10 of the value in µM)
Short version: log10 scale, TGI, µM.

Here is how some compounds turned out for log10 of TGI.
- compound: "COc1cccc(CC(C)=C(c2ccc(OCCN3CCCCC3)cc2)c2ccc(OCCN3CCCCC3)cc2)c1"
  measured_on: "SNB-19 CNS"
  assay_metric: "log10 of TGI"
  assay_value: 0.62
- compound: "CC1=C(SCCC(=O)OC(C[Se]C2=C(C)C(=O)c3ccccc3C2=O)C(=O)NCCCCCC(=O)OCc2ccccc2)C(=O)c2ccccc2C1=O (stereo not given)"
  measured_on: "SNB-19 CNS"
  assay_metric: "log10 of TGI"
  assay_value: 1.15
- compound: "O=C([CH-]C(=O)c1ccccc1)c1ccccc1.[CH-]1CCCCC1.[CH-]1CCCCC1.[CH-]1CCCCC1.[Sn+4]"
  measured_on: "SNB-19 CNS"
  assay_metric: "log10 of TGI"
  assay_value: 1.26
- compound: "O=C1C(c2ccc(Br)cc2)=[N+]([O-])c2ccccc21"
  measured_on: "SNB-19 CNS"
  assay_metric: "log10 of TGI"
  assay_value: 1.63

Can you give me log10 of TGI for all of these, one by one?
1. COC(=O)C1Cc2c(n(C)c3ccccc23)C(CCC(=O)O)N1Cc1ccccc1 (stereo not given)
2. COc1cc(/C=C/C(=O)/C=C/c2ccc(-n3ccnc3C)cc2)ccc1O
3. Cc1cc(S(=O)(=O)Nc2nc3ccccc3nc2-c2ccc(Cl)cc2)c(S)cc1Cl

Response:
1.99
1.94
1.57

Request: Return log10 of TGI for the following compound: CCOC(=O)Oc1cc2c(c(OC)c1OC)-c1ccc(OC)c(=O)cc1C(NC(C)=O)CC2 (stereo not given)
Response: 1.97
